Tested on: rabbit platelets
Experiment: In vitro rabbit platelet aggregation induced by ADP, collagen, AA or A 23187 Ca ionophor
Assay type: cell-based
Conditions: Oryctolagus cuniculus, Platelet, aggregation induced by Collagen; in vitro; read-out: IC50 rabbit platelet aggregation, Collagen
Recorded IC50, one value per entry.
Measured Property: IC50 (µM)

CC(=O)CCCCn1c(=O)c2c(ncn2C)n(C)c1=O [Pentoxifylline, reference compound] :: 2050
CC(=O)Oc1ccccc1C(=O)O [ASA, acetylsalicylic acid, reference compound] :: 2610

* * *

Tested on: rabbit platelets
Assay: In vitro rabbit platelet aggregation induced by ADP, collagen, AA or A 23187 Ca ionophor
Type: cell-based
Conditions: Table 5, unit inferred; aggregation induced by ADP; read-out: Antiaggregatory Effect ADP
Text: We compared on rabbit platelets the in vitro antiaggregatory effect , of acetylsalicylic acid (ASA), salicylic acid (SA). Pentoxifylline (Pentox or Trental), Nospa, Papaverine and Depogen. The aggregation of the rabbit platelets was induced by adenosine diphosphate (ADP), arachidonic acid (AA), Collagen and A 23187 Ca ionophor.
Measured Property: IC50

CCOc1ccc(CC2=NCCc3cc(OCC)c(OCC)cc32)cc1OCC [Nospa] :: 740 µM
CCOc1ccc(CC2=NCCc3cc(OCC)c(OCC)cc32)cc1OCC [Depogen] :: 247 µM
